# TGT: T1, human FLT3 (human, UniProt P36888 27-541, limits assumed)
# T1 construct: Soluble analyte hFLT3 in SPR; also called hFLT3; huFlt3
# T1 sequence: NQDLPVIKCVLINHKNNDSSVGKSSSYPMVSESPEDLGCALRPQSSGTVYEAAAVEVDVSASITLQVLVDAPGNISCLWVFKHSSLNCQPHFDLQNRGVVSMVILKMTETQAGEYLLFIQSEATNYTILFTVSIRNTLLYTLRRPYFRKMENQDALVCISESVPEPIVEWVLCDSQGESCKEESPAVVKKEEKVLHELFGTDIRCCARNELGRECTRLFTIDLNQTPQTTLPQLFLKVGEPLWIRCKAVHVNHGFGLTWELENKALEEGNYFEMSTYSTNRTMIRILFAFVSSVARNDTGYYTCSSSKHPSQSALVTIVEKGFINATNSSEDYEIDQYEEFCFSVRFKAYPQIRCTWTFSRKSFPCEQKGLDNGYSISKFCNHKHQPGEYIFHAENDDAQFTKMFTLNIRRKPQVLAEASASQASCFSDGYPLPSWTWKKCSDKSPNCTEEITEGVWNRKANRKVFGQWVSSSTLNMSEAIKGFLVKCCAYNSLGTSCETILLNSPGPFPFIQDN
# PROTOCOL TEXT: SPR Biacore T200, 37C; scFv format
PARAMETER MEASURED: t1/2 (min)
One number for each entry, in min.

>  <BINDER>
P5F7 (scFv format) (scFv) scFv: EVQLLESGGGLVQPGGSLRLSCAASGFTFSSYAMNWVRQAPGKGLEWVSSISGGGRSTYYADSVKGRFTISRDNSKNTLYLQMNSLRAEDTAVYYCARDLSPSDVGWGYGFDIWGQGTLVTVSSGGGGSGGGGSGGGGSEIVLTQSPATLSLSPGERATLSCRASQSVSSNLAWYQQKPGQAPRLLIYDTFTRATGIPARFSGSGSGTDFTLTISRLEPEDFAVYYCQQYGSSPPTFGQGTRLEIK

>  <PARAMETER MEASURED>
t1/2

>  <EXPERIMENTAL RESULT>
59

$$$$

Q) Assign t1/2 to the following record: P14G2 (scFv format) (scFv) scFv: EVQLLESGGGLVQPGGSLRLSCAASGFTFSNYVMNWVRQAPGKGLEWVSAISGSGATTYYADSVKGRFTISRDNSKNTLYLQMNSLRAEDTAVYYCVSGLWAGGIWGQGTLVTVSSGGGGSGGGGSGGGGSDIQMTQSPSSLSASVGDRVTITCRASQSISSYLNWYQQKPGKAPKLLIYDASDLQRGVPSRFSGSGSGTDFTLTISSLQPEDFATYYCQQSYNTPWTFGQGTKVEIK
A) 37.9
